The entries below come with measured Kd values attached.
Method Summary: Displacement of Fl-Sal-AMS from Mycobacterium tuberculosis MbtA expressed in Escherichia coli after 30 mins by fluorescence polarization assay
Hi! Could you send only the number? It should be in µM, unit omitted.

INSERT INTO results (structure_notation, recorded_number) VALUES
  ('O=C(O)c1cc(-c2ccc(CO)cc2)nc2c1cnn2Cc1ccncc1', 3.7),
  ('O=C(O)c1cc(-c2cn[nH]c2)nc2c1cnn2Cc1ccncc1', 27.9);

Now consider a different compound.
Prompt line: Suppose we examine the compound `Nc1cc(-c2ccccc2)nc2c1cnn2Cc1ccncc1` ; what Kd value has been reported?
Response line: 36.4

* * *

Reported pKd values for a set of molecules
Method Summary: Displacement of Fl-Sal-AMS from Mycobacterium tuberculosis MbtA expressed in Escherichia coli after 30 mins by fluorescence polarization assay
Please keep in mind that pKd is minus log10 of the molar concentration; only the number is needed.

INSERT INTO measurements (structure_notation, measured_metric, recorded_number) VALUES
  ('O=C(O)c1cc(NCc2ccccc2)nc2c1cnn2Cc1ccncc1', 'pKd', 5.22);

Prompt line: What measured pKd goes with `O=C(O)c1cc(/C=C/c2ccccc2)nc2c1cnn2Cc1ccncc1` ?
Response line: 5.29

Prompt line: Returns the measured pKd for the input molecule. Input: `O=C(O)c1cc(-c2cncnc2)nc2c1cnn2Cc1ccncc1`
Response line: 4.87

Prompt line: Need pKd of `Nc1ccc(-c2cc(C(=O)O)c3cnn(Cc4ccncc4)c3n2)cc1` , thanks.
Response line: 5.39

Prompt line: Give the measured pKd of `NC(=O)c1ccc(-c2cc(C(=O)O)c3cnn(Cc4ccncc4)c3n2)cc1` .
Response line: 6.00

* * *

Method Summary: Displacement of Fl-Sal-AMS from Mycobacterium tuberculosis MbtA expressed in Escherichia coli after 30 mins by fluorescence polarization assay
Measured pKd, listed per entry for reference.
Note on pKd: it is the negative log10 of concentration, concentration in mol/L.

Answered examples (5):
INSERT INTO assay_data (structure_notation, measured_metric, recorded_number) VALUES
  ('O=C(O)c1cc(-c2ccccc2)cc2c1ccn2Cc1ccncc1', 'pKd', 3.79),
  ('C#Cc1cc(C(=O)O)c2cnn(Cc3ccncc3)c2n1', 'pKd', 4.73),
  ('O=C(O)c1cc(-c2ccc(F)cc2)nc2c1cnn2Cc1ccncc1', 'pKd', 5.72),
  ('O=C(O)c1cc(-c2cccc(Cl)c2)nc2c1cnn2Cc1ccncc1', 'pKd', 5.34),
  ('O=C(O)c1cc(NCCCO)nc2c1cnn2Cc1ccncc1', 'pKd', 4.01);

Prompt line: Returns the measured pKd for the input compound. Input: `NC(=O)c1cc(-c2ccccc2)nc2c1cnn2Cc1ccncc1`
Response line: 5.07

Prompt line: Reported pKd for `O=C(O)c1cc(-c2ccccc2)cc2c1cnn2Cc1ccncc1` : what is it?
Response line: 4.56

Prompt line: Any idea what its pKd is? The compound is `CN(C)c1ccc(-c2cc(C(=O)O)c3cnn(Cc4ccncc4)c3n2)cc1`
Response line: 5.77

* * *

Method Summary: Displacement of Fl-Sal-AMS from Mycobacterium tuberculosis MbtA expressed in Escherichia coli after 30 mins by fluorescence polarization assay
pKd: −log10 of the molar value.
Measured Metric: pKd

# count of solved cases: 2
INSERT INTO measurements (structure_notation, result) VALUES
  ('CCNC(=O)c1cc(-c2ccccc2)nc2c1cnn2Cc1ccncc1', '< 4.30'),
  ('CN(C)C(=O)c1cc(-c2ccccc2)nc2c1cnn2Cc1ccncc1', '< 4.30');

Prompt line: Using the record for `C=Cc1cc(C(=O)O)c2cnn(Cc3ccncc3)c2n1` , report its pKd.
Response line: < 4.00
